Biological target: PI3 kinase alpha (Homo sapiens)
Sequence (P42336 whole entry): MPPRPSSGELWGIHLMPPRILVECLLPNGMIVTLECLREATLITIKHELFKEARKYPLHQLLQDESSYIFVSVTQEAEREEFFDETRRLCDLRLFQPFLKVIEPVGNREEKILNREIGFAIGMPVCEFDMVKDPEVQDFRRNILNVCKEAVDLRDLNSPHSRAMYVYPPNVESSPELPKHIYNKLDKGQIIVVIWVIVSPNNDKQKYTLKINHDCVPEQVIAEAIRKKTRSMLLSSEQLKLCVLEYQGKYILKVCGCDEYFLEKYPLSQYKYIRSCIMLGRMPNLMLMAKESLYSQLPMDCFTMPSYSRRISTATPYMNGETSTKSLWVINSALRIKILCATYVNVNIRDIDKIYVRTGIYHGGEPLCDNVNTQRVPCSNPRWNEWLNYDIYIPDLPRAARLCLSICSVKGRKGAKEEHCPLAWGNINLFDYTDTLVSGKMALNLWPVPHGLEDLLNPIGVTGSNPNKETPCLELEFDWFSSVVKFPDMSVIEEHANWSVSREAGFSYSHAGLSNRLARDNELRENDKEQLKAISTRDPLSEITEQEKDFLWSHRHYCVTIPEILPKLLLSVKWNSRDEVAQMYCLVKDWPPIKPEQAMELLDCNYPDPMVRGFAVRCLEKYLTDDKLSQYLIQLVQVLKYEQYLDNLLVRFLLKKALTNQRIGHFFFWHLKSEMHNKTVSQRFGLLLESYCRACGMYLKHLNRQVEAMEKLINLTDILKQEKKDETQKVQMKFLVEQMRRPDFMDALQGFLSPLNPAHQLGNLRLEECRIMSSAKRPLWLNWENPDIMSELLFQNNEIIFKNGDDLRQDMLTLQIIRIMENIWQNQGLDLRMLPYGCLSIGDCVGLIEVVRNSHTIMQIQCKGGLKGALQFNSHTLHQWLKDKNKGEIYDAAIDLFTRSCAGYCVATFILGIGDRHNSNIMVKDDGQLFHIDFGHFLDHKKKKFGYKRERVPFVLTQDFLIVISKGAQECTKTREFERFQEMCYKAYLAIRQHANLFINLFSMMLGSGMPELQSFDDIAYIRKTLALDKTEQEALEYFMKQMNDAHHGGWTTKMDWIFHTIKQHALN
Sequence (P27986 whole entry partner): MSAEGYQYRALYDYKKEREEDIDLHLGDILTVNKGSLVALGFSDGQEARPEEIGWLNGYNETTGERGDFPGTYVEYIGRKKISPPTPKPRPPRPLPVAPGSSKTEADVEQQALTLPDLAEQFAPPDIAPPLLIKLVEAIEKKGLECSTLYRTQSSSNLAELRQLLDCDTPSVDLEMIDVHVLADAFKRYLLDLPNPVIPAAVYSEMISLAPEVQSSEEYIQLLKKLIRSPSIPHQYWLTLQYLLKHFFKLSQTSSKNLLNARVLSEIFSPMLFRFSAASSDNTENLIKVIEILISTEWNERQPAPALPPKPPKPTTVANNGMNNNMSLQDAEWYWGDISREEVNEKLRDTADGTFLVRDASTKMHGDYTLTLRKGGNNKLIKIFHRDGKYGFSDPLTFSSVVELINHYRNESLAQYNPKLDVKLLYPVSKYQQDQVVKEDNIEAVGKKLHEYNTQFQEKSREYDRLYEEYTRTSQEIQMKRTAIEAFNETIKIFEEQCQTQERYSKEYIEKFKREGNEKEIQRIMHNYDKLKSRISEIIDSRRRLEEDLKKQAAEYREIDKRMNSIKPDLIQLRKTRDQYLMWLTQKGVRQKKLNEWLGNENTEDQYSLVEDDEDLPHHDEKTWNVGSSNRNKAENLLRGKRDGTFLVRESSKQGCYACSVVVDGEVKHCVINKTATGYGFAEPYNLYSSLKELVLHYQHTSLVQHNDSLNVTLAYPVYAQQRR
Assay: PI3K ATP depletion assay (Biological Method 1, Assay 3; KinaseGlo luminescence)
Assay type: biochemical
Conditions: ATP depletion assay; read-out: PI3 Kinase Alpha, IC50
Reported property: IC50

**Query** Reported IC50 for Nc1ncc(-c2cc(Nc3cnc4ccc(OC(F)(F)F)cc4c3)nc(N3CCOCC3)n2)cn1 [Compound 495] : what is it?
**Result** < 1000 nM

**Query** Endpoint output: IC50 of Nc1ccc(-c2cc(NCCc3ccncc3)nc(N3CCOCC3)n2)cn1 [Compound 435] . Value?
**Result** < 10000 nM

**Query** Given CC(C)N1CCC(Oc2cncc(-c3cc(-c4cnc(N)cc4C(F)(F)F)nc(N4CCOCC4)n3)c2)C1 (stereo not shown) [Compound 129] , state its recorded IC50.
**Result** < 1000 nM

**Query** Given Cc1nc(N)ncc1-c1nc(N2CCOCC2)nc(Nc2cnc3ccccc3c2)c1C [Compound 185] , state its recorded IC50.
**Result** < 1000 nM

**Query** Recorded IC50 for CC(C)N1CCC(Oc2ccc(Nc3cc(-c4cnc(N)nc4N)nc(N4CCOCC4)n3)cn2)CC1 [Compound 68] , please?
**Result** < 1000 nM

**Query** Entry under review: COC(=O)N1CCC(Oc2cc(-c3cnc(N)nc3N)nc(N3CCOCC3)n2)CC1 [Compound 81] . Reported IC50?
**Result** < 1000 nM

**Query** Value lookup for IC50; key = Nc1ncc(-c2cc(Nc3ccc4c(c3)OCCO4)nc(N3CCOCC3)n2)c(C(F)(F)F)n1 [Compound 164]
**Result** < 1000 nM

**Query** Field request: IC50 | item: Cn1cnnc1-c1cccc(Nc2cc(-c3cnc(N)cc3C(F)(F)F)nc(N3CCOCC3)n2)c1 [Compound 171]
**Result** < 1000 nM

**Query** I would be grateful if you could share the reported IC50 for Nc1ncc(-c2cc(CNC(=O)OC3CCOC3)nc(N3CCOCC3)n2)c(N)n1 (stereo not shown) [Compound 541] .
**Result** < 1000 nM

**Query** Which value of IC50 has been reported for Nc1ccc(-c2cc(NCCc3cccnc3)nc(N3CCOCC3)n2)cn1 [Compound 434] in the records?
**Result** < 10000 nM
